# assay: self-splicing fitness, log relative to wild type (ln ratio); higher = more splicing; Tetrahymena group I intron in knt gene, E. coli kanamycin selection, DiMSum; sequences stand for … in CUCUCU…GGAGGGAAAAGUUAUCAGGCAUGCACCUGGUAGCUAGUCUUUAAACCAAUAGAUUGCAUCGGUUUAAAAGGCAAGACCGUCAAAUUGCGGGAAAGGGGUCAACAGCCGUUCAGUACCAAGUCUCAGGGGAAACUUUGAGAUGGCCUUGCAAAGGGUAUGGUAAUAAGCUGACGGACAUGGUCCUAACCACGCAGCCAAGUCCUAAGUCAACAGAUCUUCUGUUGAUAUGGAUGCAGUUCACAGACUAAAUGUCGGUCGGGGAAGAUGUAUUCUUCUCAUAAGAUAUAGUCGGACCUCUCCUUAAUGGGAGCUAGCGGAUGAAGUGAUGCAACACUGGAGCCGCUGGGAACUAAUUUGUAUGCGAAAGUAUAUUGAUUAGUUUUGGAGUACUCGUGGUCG;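 further: selection with 25 µg/mL kanamycin versus none on LB agar overnight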
# conditions.used: 37 °C
Binary call on self-splicing fitness (ln): 1 from -1 upward, -1 beneath that.

INSERT INTO assay_data (sequence, assigned_label) VALUES
  ('GUCAAGCAAUAUUACGGAAC', -1),
  ('AGGUAGCAAUAUUACGACAC', 1),
  ('CGACAGCAAUAUUACGAUCA', 1);

Qu. Does UUCAAGCAAUAUUACGACGC have a reported self-splicing fitness (ln) of at least -1?
Ans. -1

Qu. GGGUAGCAAUAUUACGCCUA ?
Ans. 1

Qu. CGGGAGCAAUAUUACGGUGG ?
Ans. -1

Qu. UUUUAGCAAUAUUACGAAGG ?
Ans. -1

Qu. CCGUAGCAAUAUUACGAAGU ?
Ans. -1

Qu. CCUUAGCAAUAUUACGACCG ?
Ans. 1

Qu. CUUGAGCAAUAUUACGACAU ?
Ans. -1

Qu. AUAAAGCAAUAUUACGGUCA ?
Ans. 1

Qu. UUCAAGCAAUAUUACGUAGA ?
Ans. 1

Qu. GUAUAGCAAUAUUACGAUAA ?
Ans. 1

Qu. GUCGAGCAAUAUUACGGCAU ?
Ans. 1

Qu. CCAGAGCAAUAUUACGGGCC ?
Ans. -1

Qu. UGCCAGCAAUAUUACGAGUC ?
Ans. -1

Qu. GCGUAGCAAUAUUACGGCGG ?
Ans. -1

Qu. AGUGAGCAAUAUUACGAACU ?
Ans. -1

Qu. UCGUAGCAAUAUUACGCUAG ?
Ans. -1

Qu. GCCGAGCAAUAUUACGAAAC ?
Ans. -1

Qu. ACGAAGCAAUAUUACGGUCC ?
Ans. 1

Qu. AGACAGCAAUAUUACGAGGG ?
Ans. -1

Qu. UACGAGCAAUAUUACGGUUC ?
Ans. -1

###

# assay: self-splicing fitness, log relative to wild type (ln ratio); higher = more splicing; Tetrahymena group I intron in knt gene, E. coli kanamycin selection, DiMSum; sequences stand for … in CUCUCU…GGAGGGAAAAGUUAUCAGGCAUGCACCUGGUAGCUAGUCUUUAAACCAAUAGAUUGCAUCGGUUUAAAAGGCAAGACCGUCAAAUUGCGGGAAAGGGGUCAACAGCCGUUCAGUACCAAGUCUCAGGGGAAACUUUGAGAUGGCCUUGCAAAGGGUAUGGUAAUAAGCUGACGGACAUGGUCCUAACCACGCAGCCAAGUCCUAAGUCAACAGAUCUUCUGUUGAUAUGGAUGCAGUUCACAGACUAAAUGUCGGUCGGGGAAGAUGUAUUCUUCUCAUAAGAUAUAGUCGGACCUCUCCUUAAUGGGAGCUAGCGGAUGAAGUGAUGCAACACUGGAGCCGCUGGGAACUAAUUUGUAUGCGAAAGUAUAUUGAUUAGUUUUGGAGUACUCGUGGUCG
# conditions.used: 37 °C
self-splicing fitness (ln): recorded values
Format: numeric value only, no unit, no commentary.

Use these answered entries as a reference point.
INSERT INTO measurements (sequence, measured_result) VALUES
  ('UUUCAGCAAUAUUACGAUUC', -1.37),
  ('GUCGAGCAAUAUUACGAAAG', -2.2),
  ('GUUAAGCAAUAUUACGUUGU', -2.28),
  ('GGCUAGCAAUAUUACGGUCG', -0.669);

As a next step, examine the sequence that follows.
Qu. What value of measured self-splicing fitness (ln) is listed for UUGUAGCAAUAUUACGGCAU ?
Ans. 0.641

###

# assay: self-splicing fitness, log relative to wild type (ln ratio); higher = more splicing; Tetrahymena group I intron in knt gene, E. coli kanamycin selection, DiMSum; sequences stand for … in CUCUCU…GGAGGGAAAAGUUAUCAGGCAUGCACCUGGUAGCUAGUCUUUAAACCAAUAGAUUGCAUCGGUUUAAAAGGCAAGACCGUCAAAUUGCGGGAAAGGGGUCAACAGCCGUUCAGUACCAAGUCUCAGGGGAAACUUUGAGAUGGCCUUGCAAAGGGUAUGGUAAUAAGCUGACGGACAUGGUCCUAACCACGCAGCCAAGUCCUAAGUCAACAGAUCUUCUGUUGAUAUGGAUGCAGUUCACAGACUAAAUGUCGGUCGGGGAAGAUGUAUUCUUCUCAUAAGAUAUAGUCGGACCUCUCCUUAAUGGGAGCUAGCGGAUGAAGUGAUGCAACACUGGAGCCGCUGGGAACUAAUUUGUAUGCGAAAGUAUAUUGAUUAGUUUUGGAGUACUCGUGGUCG
# conditions.used: 37 °C
property.measured: self-splicing fitness (ln)

Qu. What value of measured self-splicing fitness (ln) is listed for GUACAGCAAUAUUACGCGCG ?
Ans. -0.578

Qu. AAGGAGCAAUAUUACGUCAG ?
Ans. -2.28

Qu. UUCUAGCAAUAUUACGCAAU ?
Ans. -2.21

Qu. AUUGAGCAAUAUUACGAUAU ?
Ans. -1.04

Qu. UGACAGCAAUAUUACGAUCG ?
Ans. 0.761

Qu. GAGAAGCAAUAUUACGAGGU ?
Ans. -3.9

Qu. CCACAGCAAUAUUACGGAUC ?
Ans. -2.8

Qu. CCCUAGCAAUAUUACGGCAG ?
Ans. -2.75

Qu. GUCCAGCAAUAUUACGCUGG ?
Ans. -3.25

Qu. CCGAAGCAAUAUUACGAACG ?
Ans. 0.554

###

# assay: self-splicing fitness, log relative to wild type (ln ratio); higher = more splicing; Tetrahymena group I intron in knt gene, E. coli kanamycin selection, DiMSum; sequences stand for … in CUCUCU…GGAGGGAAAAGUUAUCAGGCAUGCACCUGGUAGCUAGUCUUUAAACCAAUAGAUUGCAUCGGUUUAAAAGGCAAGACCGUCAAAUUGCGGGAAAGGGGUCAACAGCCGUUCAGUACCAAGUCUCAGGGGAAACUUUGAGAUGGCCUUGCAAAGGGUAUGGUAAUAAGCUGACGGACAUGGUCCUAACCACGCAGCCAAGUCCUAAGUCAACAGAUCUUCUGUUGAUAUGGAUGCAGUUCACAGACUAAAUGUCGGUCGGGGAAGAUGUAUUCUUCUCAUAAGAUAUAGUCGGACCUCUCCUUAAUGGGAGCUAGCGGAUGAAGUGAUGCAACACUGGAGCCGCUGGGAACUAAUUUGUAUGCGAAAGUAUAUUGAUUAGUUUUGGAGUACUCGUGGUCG
# conditions.used: 30 °C
property.measured: self-splicing fitness (ln)
Format: numeric value only, no unit, no commentary.

Qu. What value of measured self-splicing fitness (ln) is listed for ACGAAGCAAUAUUACGGAAC ?
Ans. -3.19

Qu. AACGAGCAAUAUUACGUUCC ?
Ans. -3.09

Qu. AGAAAGCAAUAUUACGAAAC ?
Ans. -3.2

Qu. CUCCAGCAAUAUUACGUAAG ?
Ans. -0.512

Qu. UAAUAGCAAUAUUACGGGCG ?
Ans. -1.45

Qu. AGAAAGCAAUAUUACGGGUG ?
Ans. -1.41

Qu. GUAAAGCAAUAUUACGGUUA ?
Ans. -0.077

Qu. ACUAAGCAAUAUUACGAUAG ?
Ans. -1.34

Qu. ACUUAGCAAUAUUACGGAAG ?
Ans. -2.44

Qu. UGCGAGCAAUAUUACGUUCU ?
Ans. -1.68

Qu. CGUUAGCAAUAUUACGUGAA ?
Ans. -2.48

Qu. GUCAAGCAAUAUUACGACGU ?
Ans. -1.26

Qu. CCCAAGCAAUAUUACGGUGU ?
Ans. -2.71

###

# assay: self-splicing fitness, log relative to wild type (ln ratio); higher = more splicing; Tetrahymena group I intron in knt gene, E. coli kanamycin selection, DiMSum; sequences stand for … in CUCUCU…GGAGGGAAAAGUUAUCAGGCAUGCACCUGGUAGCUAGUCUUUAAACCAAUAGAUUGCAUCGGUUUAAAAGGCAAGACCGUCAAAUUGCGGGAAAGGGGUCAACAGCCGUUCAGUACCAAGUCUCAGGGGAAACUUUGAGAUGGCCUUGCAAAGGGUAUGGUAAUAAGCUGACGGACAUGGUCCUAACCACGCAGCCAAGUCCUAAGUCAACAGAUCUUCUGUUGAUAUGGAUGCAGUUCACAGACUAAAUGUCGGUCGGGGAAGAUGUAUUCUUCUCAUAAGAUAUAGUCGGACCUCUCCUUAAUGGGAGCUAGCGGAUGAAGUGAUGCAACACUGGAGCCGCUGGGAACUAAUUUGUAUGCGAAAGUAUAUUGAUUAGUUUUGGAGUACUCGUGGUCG
# conditions.used: 30 °C
property.measured: self-splicing fitness (ln)
Format: numeric value only, no unit, no commentary.

Use these answered entries as a reference point.
INSERT INTO results (sequence, property_measured, measured_result) VALUES
  ('UGACAGCAAUAUUACGGACU', 'self-splicing fitness (ln)', -0.289),
  ('GGUAAGCAAUAUUACGCGUA', 'self-splicing fitness (ln)', -0.32);

Qu. What value of measured self-splicing fitness (ln) is listed for CAGUAGCAAUAUUACGCUAA ?
Ans. -2.26
